Source listed as PubChem BioAssay.

Task for the reader: assign each of the following compounds its reported inhibition.
Assay: 384-well plate pilot, post-Golgi transport modulator project, inhibition of yeast transport mutant growth (AID 636); further: test concentration not given here
Conditions: absorbance 615 nm, about 18 h, active compounds read high
Reply numerically in %, unit not repeated.

input: I would be grateful if you could share the reported inhibition for c1ccc(-c2oc3ncnc(NCCN4CCOCC4)c3c2-c2ccccc2)cc1 .
output: -0.52

input: Same question for CCCSc1nnc(-c2ccccc2NC(=O)CC)c(=O)[nH]1 please.
output: -5.87

input: Same question for COc1ccccc1OCc1nc2ccccc2[nH]1 please.
output: -6.16

input: Same question for FC(F)(F)c1ccc(Sc2nnc(-c3cccs3)n2CC2CCCO2)nc1 (stereo unspecified) please.
output: -8.22

input: Same question for CCCCn1c(=O)[nH]c(=O)c2c1nc(COc1ccc(C#N)cc1)n2CCC please.
output: -1.04

input: Same question for Cc1nn(-c2ccccc2)c2c1C(O)n1c(nc3ccccc31)S2 (stereo unspecified) please.
output: -6.85
